Molecular target: T1, human glucose-dependent insulinotropic peptide (gastric inhibitory polypeptide) receptor (human, UniProt P48546 22-466)
T1 sequence (looked up): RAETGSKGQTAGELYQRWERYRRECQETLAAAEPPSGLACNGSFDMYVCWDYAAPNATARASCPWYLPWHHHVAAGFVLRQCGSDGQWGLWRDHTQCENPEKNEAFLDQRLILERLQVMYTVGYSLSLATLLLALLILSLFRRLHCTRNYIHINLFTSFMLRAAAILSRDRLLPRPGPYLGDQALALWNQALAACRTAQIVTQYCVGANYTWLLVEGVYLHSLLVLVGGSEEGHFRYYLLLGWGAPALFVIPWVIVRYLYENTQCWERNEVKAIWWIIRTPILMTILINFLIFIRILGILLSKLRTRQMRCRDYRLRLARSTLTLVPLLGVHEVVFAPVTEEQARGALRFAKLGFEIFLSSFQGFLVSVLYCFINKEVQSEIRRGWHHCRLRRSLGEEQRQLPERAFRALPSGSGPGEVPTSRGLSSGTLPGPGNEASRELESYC
Assay: cell-based or functional assay
Ends that are not written are not given here. * marks the point of attachment. Palmitoyl = CCCCCCCCCCCCCCCC(=O)*
This listing pairs binders with measured cAMP EC50 (assay 1).
Number in µM, nothing else.

BINDER | RESULT_NUMBER
HSQGTFTSDYSKYLDSRRAQDFVQWLVAGGPSSGAPPPSK(Palmitoyl)-NH2 [g320] | 0.00101

**Query** For HSQGTFTSDYSKKLDSERARDFVAWLVAGG (X13 = K(gE-palm) (Lys with palmitoyl on the epsilon nitrogen through a gamma glutamic acid linker); C-terminal amide) [G730] , what is its reported cAMP EC50 (assay 1)?
**Result** 0.0566

**Query** Can you look up the measured cAMP EC50 (assay 1) of HSQGTFTSDYSKYLDSRRAQDFVQWLEAGG-NH2 [g840] for me?
**Result** 0.102
